# TESTED ON: GRIA1^Ser (Bos taurus, UniProt G0T3G6)
# Sequence (G0T3G6 19-906): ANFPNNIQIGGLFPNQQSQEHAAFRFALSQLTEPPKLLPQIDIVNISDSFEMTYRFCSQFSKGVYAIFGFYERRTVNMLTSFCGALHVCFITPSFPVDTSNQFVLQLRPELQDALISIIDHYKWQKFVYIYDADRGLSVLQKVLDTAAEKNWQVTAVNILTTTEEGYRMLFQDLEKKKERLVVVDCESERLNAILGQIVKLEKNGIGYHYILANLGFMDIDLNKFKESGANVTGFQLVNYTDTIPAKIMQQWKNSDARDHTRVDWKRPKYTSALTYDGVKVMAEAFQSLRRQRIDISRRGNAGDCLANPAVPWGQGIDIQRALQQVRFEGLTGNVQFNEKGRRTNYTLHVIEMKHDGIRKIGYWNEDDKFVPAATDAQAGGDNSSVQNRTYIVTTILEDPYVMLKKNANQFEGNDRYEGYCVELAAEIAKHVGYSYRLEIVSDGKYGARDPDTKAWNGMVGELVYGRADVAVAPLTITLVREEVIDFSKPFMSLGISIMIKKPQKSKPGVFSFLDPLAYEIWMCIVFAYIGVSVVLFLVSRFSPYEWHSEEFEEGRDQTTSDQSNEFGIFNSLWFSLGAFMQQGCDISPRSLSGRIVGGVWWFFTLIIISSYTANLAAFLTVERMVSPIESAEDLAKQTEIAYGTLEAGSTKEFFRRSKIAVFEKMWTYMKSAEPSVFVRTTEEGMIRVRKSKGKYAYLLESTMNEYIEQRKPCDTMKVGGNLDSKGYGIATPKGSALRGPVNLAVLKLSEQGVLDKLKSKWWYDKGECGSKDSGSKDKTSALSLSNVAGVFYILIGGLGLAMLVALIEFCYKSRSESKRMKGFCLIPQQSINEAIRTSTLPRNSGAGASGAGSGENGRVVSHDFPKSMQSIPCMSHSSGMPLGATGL
# ASSAY COMMENT: Whole-cell current responses in Xenopus oocytes injected with GRIA1^Ser mRNA
# REPORTED CONDITIONS: Xenopus oocytes expressing GRIA1^Ser alone, glutamate 1-300 µM, n = 10; read-out: EC50 of current response
# Experimental: Bovine GRIA1 mRNAs were synthesized using mMESSAGE mMACHINE® SP6 Kit (Applied Biosystems) and injected into Xenopus oocytes as described previously. Whole-cell current responses to 1, 3, 10, 30, 100, and 300 µM glutamate were recorded as described previously.
READOUT TYPE: EC50 (µM)
Number in µM, nothing else.

Q. Tell me EC50 reported for N[C@@H](CCC(=O)O)C(=O)O [glutamate]
A. 4.5

* * *

# TESTED ON: GRIA1^Ser (brain membrane fraction of S/S cows)
# ASSAY COMMENT: [3H]AMPA ligand binding assay, membrane fractions from brain of S/S cows
# REPORTED CONDITIONS: saturation binding of [3H]AMPA 1-200 nM, n = 3
READOUT TYPE: Kd (nM)
Form entry: value (nM) — number only.

Q. Give Kd for Cc1o[nH]c(=O)c1CC(N)C(=O)O (stereo not shown) [AMPA]
A. 27.7

* * *

# TESTED ON: GRIA1 (brain membrane fraction of S/N cows)
# ASSAY COMMENT: [3H]AMPA ligand binding assay, membrane fractions from brain of S/N cows
# REPORTED CONDITIONS: saturation binding of [3H]AMPA 1-200 nM, n = 3
READOUT TYPE: pKd
// scale note: pKd = -log10(conc_M); give the bare number

Q. Give reported pKd for Cc1o[nH]c(=O)c1CC(N)C(=O)O (stereo not shown) (GRIA1 (brain membrane fraction of S/N cows))
A. 7.36

* * *

# System: GRIA1^Ser with GRIA2
# ASSAY COMMENT: Whole-cell current responses in Xenopus oocytes coexpressing GRIA1^Ser with GRIA2
# Type: cell-based, bovine
# REPORTED CONDITIONS: Xenopus oocytes expressing GRIA1^Ser coexpressed with GRIA2, n = 8; read-out: EC50 of current response
READOUT TYPE: pEC50
Units for pEC50: none; it is -log10 of a concentration expressed in mol/L.

Q. Give pEC50 for the following compound: N[C@@H](CCC(=O)O)C(=O)O [glutamate]
A. 5.31

* * *

# TESTED ON: GRIA1^Asn (brain membrane fraction of N/N cows)
# ASSAY COMMENT: [3H]AMPA ligand binding assay, membrane fractions from brain of N/N cows
# Parameters: species or system bovine
# REPORTED CONDITIONS: saturation binding of [3H]AMPA 1-200 nM, n = 3
# Protocol: Membrane fractions were extracted from bovine brain as described previously, and 25 µg of protein were resolved by SDS-PAGE and transferred to polyvinylidene difluoride membranes. The blots were incubated with rabbit polyclonal antibody to GRIA1 (1∶1000, AB1504, Millipore, Tokyo, Japan) or actin (1∶200, A2066, Sigma-Aldrich, St. Louis, MO). Protein (500 µg/ml) was used for a ligand binding assay with [^3H] AMPA (392.2 GBq/mmol, 1–200 nM) as described previously. […]
READOUT TYPE: Kd (nM)
The answer is to be given in nM; state only the numeric part.

Q. Fill in Kd for record Cc1o[nH]c(=O)c1CC(N)C(=O)O (stereo not shown) [AMPA]
A. 59.6
